Test: protein stability index of a GFP-peptide fusion (yeast GPS) (PSI 1-4); higher = more stable; sorted into four equal gates, so the index is relative within each strain
Conditions: ubr1∆
Each record here notes measured protein stability index.
Please state the value as a number alone, without comment.

Check out these entries, answers already filled in.
- NYLKYLEYWCNPPYSQC [SOH1]: 2.28
- LTLYLFQDYLTQQAVNL [IRR1]: 2.17
- FVIHIQEKNFQTGIFVY [RPB5]: 1.88
- KENELLFGEKSILGKFC [YCS4]: 1.73
- EYKKHFPPNLEKGENPS [UBP6]: 1.93

[ask] Sample FKDRFKDEPVQNDILQE [FAS2] — what was its protein stability index?
[reply] 3.46

[ask] Lookup RAQRVAEKRDALLKEDA [RPL19A]
[reply] 3.47

[ask] Next sequence: AGDIQLQYGWKVERHIM [RPO21]
[reply] 1.24

[ask] Okay, and TGKIVDVVGTLSRNGKP [FAS1] ?
[reply] 3.44

[ask] Queued: ANKTNLIESLNTIRQNV [YML103C/NUP188]
[reply] 1.77

[ask] Here is the next sequence: EVYDFTHAVGNNCEDFV [FAS1]
[reply] 3.05

[ask] Further, for LKPKLYYEQFRPDLIKE [SIR3] ?
[reply] 3.33

[ask] Can you handle LAYENKITDKEDLLHYI [POP4] next?
[reply] 3.24

[ask] Now try MFNPLHESYCLPMDTNL [YMR129W/POM152] .
[reply] 2.36
